Target: human GPR84 receptor (Homo sapiens, UniProt Q9NQS5)
Construct: frozen aliquots prepared by acCELLerate
Sequence (Q9NQS5 whole entry): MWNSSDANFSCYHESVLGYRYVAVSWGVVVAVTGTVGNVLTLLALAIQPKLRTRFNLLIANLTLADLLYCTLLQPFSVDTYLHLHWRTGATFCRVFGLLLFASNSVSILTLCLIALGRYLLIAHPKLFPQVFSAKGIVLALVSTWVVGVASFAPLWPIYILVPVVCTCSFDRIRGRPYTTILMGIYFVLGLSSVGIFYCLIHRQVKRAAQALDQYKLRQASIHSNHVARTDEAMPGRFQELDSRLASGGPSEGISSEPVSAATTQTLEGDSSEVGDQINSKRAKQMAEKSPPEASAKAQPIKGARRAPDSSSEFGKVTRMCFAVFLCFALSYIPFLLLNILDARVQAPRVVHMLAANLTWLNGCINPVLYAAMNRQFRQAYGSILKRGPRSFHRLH
Assay: cAMP HTRF assay for identification of cellular GPR84 antagonists
Details: CHO-K1 cells stably expressing human GPR84; Forskolin + agonist 6-OAU (EC80); average or median values
Each entry below carries its recorded IC50.
Provide only the numeric value, understood in µM.

Some solved entries appear below for comparison.
INSERT INTO assay_data (compound, measure_unit, endpoint_value) VALUES
  ('O=C(NCCc1ccccn1)c1oc2c(c1C(F)(F)F)-c1nn(C[C@H]3COCCO3)cc1CC2', 'µM', 1.12),
  ('Cc1c(C(=O)NC[C@@H]2COCCO2)oc2c1-c1nn(Cc3ccccn3)cc1CC2', 'µM', 0.064),
  ('O=C(NC[C@@H]1COCCO1)c1oc2c(c1C(F)(F)F)-c1nn(CC3CCN(C(=O)c4ccccc4)CC3)cc1CC2', 'µM', 0.01);

// query For CC1Cc2oc(C(=O)NC[C@@H]3COCCO3)c(C(F)(F)F)c2-c2nn(C[C@H]3COCCO3)cc21 (single isomer, unassigned) [Example 254-1] , write its IC50.
// result 0.01

// query For Cc1c(C(=O)NCC2OCCC2(C)C)oc2c1-c1nn(Cc3ccccn3)cc1CC2 (racemic) , write its IC50.
// result 6.41

// query For C[C@@H]1Cc2oc(C(=O)NCc3cnc(Cl)cn3)c(C(F)(F)F)c2-c2nn(C[C@H]3COCCO3)cc21 (single isomer, unassigned) , write its IC50.
// result 0.003

// query For C[C@@H]1Cc2oc(C(=O)NC[C@@H]3CCCO3)c(C(F)(F)F)c2-c2nn(CC3CCN(C(=O)C4CC4)CC3)cc21 (single isomer, unassigned) , write its IC50.
// result 0.004

---

Each entry below carries its recorded log10 of IC50.
Target: human GPR84 receptor (Homo sapiens)
Construct: frozen aliquots prepared by acCELLerate
Assay: cAMP HTRF assay for identification of cellular GPR84 antagonists
Settings: CHO-K1 cells stably expressing human GPR84; Forskolin + agonist 6-OAU (EC80); average or median values
From the text: cAMP HTRF® Assay for Identification of Cellular GPR84 Antagonists By using a Homogenous Time-Resolved Fluorescence (HTRF®) based assay (#62AM5PEJ, Cisbio, Condolet, France) the inhibition of the Gi-coupled GPR84 receptor can be detected. […] Detection and quantification of cellular cAMP levels in this HTRF assay is achieved by interaction between a fluorescent cAMP tracer (cAMP-d2) and an Eu-cryptate labelled anti-cAMP antibody. […]
# log10 transformed; quantity=IC50; unit=nM

Some solved entries appear below for comparison.
INSERT INTO measurements (molecule, endpoint_value) VALUES
  ('Cc1cc(Cn2cc3c(n2)-c2c(oc(C(=O)NC[C@@H]4CCCO4)c2C)CC3)cc(C)n1', 2.58),
  ('Cc1c(C(=O)NC[C@@H]2COCCO2)oc2c1-c1nn(Cc3noc(C4CC4)n3)cc1CC2', 1.63),
  ('Cc1c(C(=O)NC[C@@H]2CCCO2)oc2c1-c1nn(CC3CN(C(=O)OC(C)(C)C)C3)cc1CC2', 1.04),
  ('Cc1c(C(=O)N2CCCC2CN)oc2c1-c1nn(Cc3ccccn3)cc1CC2 (racemic)', 3.55);

// query For Cc1c(C(=O)NCC2COCC(C)(C)O2)oc2c1-c1nn(C[C@H]3COCCO3)cc1C1(CC1)C2 (mixture of isomers) , write its log10 of IC50.
// result 2.26

// query For Cc1c(C(=O)NCC2CN(C)CCO2)oc2c1-c1nn(Cc3ccccn3)cc1CC2 (single isomer, unassigned) [Example 38-1] , write its log10 of IC50.
// result 3.15

// query For Cc1c(C(=O)NC[C@@H]2COCCO2)oc2c1-c1nn(CCN)cc1CC2 , write its log10 of IC50.
// result 3.81

Where do the numbers come from? From patent US12570666B2.
